tested on: HeLa; test: Cytotoxicity against human HeLa cells assessed as reduction in cell viability incubated for 48 hrs by MTT assay; type: functional, cell-based
Answer each item with its documented IC50.
Report the value in nM with no unit label.

Q: Given `C=C1C(=O)O[C@@H]2C[C@@H](C)[C@@H]3C=CC(=O)[C@@]3(C)[C@@H](OC(=O)C=C(C)C)[C@H]12` , state its recorded IC50.
A: 2600

Q: Given `C=C1C(=O)O[C@@H]2C[C@@H](C)[C@@H]3C=CC(=O)[C@@]3(C)[C@@H](OC(=O)/C(C)=C\C)[C@H]12` , state its recorded IC50.
A: 800

Q: Given CCC(C)C(=O)O[C@H]1[C@@H]2[C@H](C)C(=O)O[C@@H]2C[C@@H](C)[C@@H]2C=CC(=O)[C@]21C (stereo partly drawn) , state its recorded IC50.
A: 2400

Q: Given `C=C1C(=O)O[C@H]2C[C@@H](C)[C@@H]3[C@@H](OC(=O)/C(C)=C/C)C[C@@H](OC(=O)/C(C)=C\C)[C@@]3(C)C[C@H]12` , state its recorded IC50.
A: 7800

Q: Given `C=C1C(=O)O[C@@H]2C[C@@H](C)[C@@H]3C=CC(=O)[C@@]3(C)[C@@H](OC(=O)CC(C)C)[C@H]12` , state its recorded IC50.
A: 2000

Q: Given C=C1C(=O)O[C@@H]2C[C@@H](C)[C@@H]3C=CC(=O)[C@@]3(C)[C@@H](OC(=O)C(C)C)[C@H]12 [HELENALINISOBUTYRATE] , state its recorded IC50.
A: 1400
